Tested on: LXFL 529 NSCLC
Assay: NCI tumour cell line growth inhibition, 48 h

| compound | scale_unit | value_modifier | TGI |
| --- | --- | --- | --- |
| O=c1c2ccccc2nc(-c2cccc(Cl)c2)n1NCC1(O)OCC(O)C(O)C1O (stereo not given) | µM | > | 100 |
| O=C(/C=C/c1ccccc1Cl)c1ccc(Cl)cc1Cl | µM | = | 29.7 |
| C/C(=N\N=C(N)N)C(CN(C)C)C(c1ccccc1)c1c(O)c2ccccc2oc1=O (stereo not given) | µM | > | 100 |
| CC(C)C(=O)/C=C/c1ccc(Cl)c(Cl)c1 | µM | = | 40.2 |
| CCN(CC)CCCC(C)NC(=O)c1ccc2c(c1)C(=O)c1ccccc1C2=O (stereo not given) | µM | = | 66.9 |

###

System: K-562 leukemia
Assay: NCI tumour cell line growth inhibition, 48 h
Measured TGI by item

| molecule | TGI |
| --- | --- |
| Clc1ncc(Cl)c(Cl)n1 | 4.08 µM |
| COC(=O)C1C(OCc2ccccc2)C2CCC1(OC)C=C2C (stereo unspecified) | > 100 µM |
| CSc1nc2c(=O)n(-c3ccccc3)c(=S)n(-c3ccccc3)c2s1 | > 100 µM |
| O=C(Nc1ccccc1)Nc1cccc(Oc2nnc(Cl)c3ccccc23)c1 | > 25 µM |
| CC(C)CN(CC(C)C)C(=O)C1CCCC[C@@H]1C(=O)O (stereo partly specified) | > 100 µM |
| COc1ccc2c(c1)/C(=C/c1cc(OC)c(OC)c(OC)c1)C(=O)N2C | > 46.5 µM |

###

Test system: T-47D breast
Test: NCI tumour cell line growth inhibition, 48 h
experimental_endpoint: TGI (µM)

| compound | experimental_endpoint | scale_unit | value_modifier | assay_result |
| --- | --- | --- | --- | --- |
| C[C@]1(O)O[C@@H]2OCC[C@@H]2C2=C1C(=O)c1ccccc1C2=O | TGI | µM | = | 59.1 |
| CS(=O)(=O)OCCN(CCOS(C)(=O)=O)c1ccc(C=O)cc1 | TGI | µM | > | 71.6 |
| O=C1NN(c2ccccc2)C(=O)/C1=C/c1ccc(Br)o1 | TGI | µM | = | 52.3 |
| Cc1cc2cn3c4cccnc4[nH]c(=O)c3c2cc1C | TGI | µM | = | 4 |
| Cc1nc(C(N)=S)sc1C(=O)C/C(=N/N)C(=O)Nc1ccc(Cl)cc1 | TGI | µM | > | 100 |
| NC(=O)CC(N=C1C(=O)OC(C(O)CO)C1=NC(CC(N)=O)C(=O)O)C(=O)O (stereo not given) | TGI | µM | > | 100 |
| COc1cc2c(cc1OCCCC(=O)Nc1cc(C(=O)NCCCN(C)C)n(C)n1)N=CC1CCCN1C2=O (stereo not given) | TGI | µM | > | 100 |
| OCC(O)C(O)C(O)/C=N/Nc1nc2ccccc2nc1-c1ccccc1 (stereo not given) | TGI | µM | > | 100 |
| COc1ccc(-c2csc(NC(=O)c3cc(O)c(O)c(O)c3)n2)cc1 | TGI | µM | = | 22.6 |
| O=c1cc(N=Nc2ccc(Cl)cc2)[nH]c(=O)[nH]1 | TGI | µM | = | 11.9 |

###

Tested on: HT29 colon
Assay: NCI tumour cell line growth inhibition, 48 h
*1 amine or outer side, *2 acyl side, *3 side chain or, on linkers, in order; H or OH if unused. Where a SMILES comes first, the peptide text is derived from it. [ ]: non-standard residue; d: D form. X56 = CC[C@H](C)[C@H](OC(=O)[C@@H](C)[C@@H](CC)N[*:1])C(=O)[*:2]; X32 = C[C@H](N[*:1])C(=O)C(C)(C)C(=O)[*:2]; NMeY = CN[C@@H](Cc1ccc(O)cc1)C(=O)O; NMeL = CN[C@@H](CC(C)C)C(=O)O; NMeV = CN[C@H](C(=O)O)C(C)C
Decision: TGI >= 30 µM yields yes, all other cases yield no.

| compound | assigned_label |
| --- | --- |
| CC[C@H](C)[C@@H]1OC(=O)[C@@H](C)[C@@H](CC)NC(=O)[C@H](C)NC(=O)C(C)(C)C(=O)[C@H](C)NC(=O)[C@H](Cc2ccc(OC)cc2)N(C)C(=O)[C@H](C(C)C)N(C)C(=O)CNC(=O)[C@H](CC(C)C)N(C)C(=O)CNC1=O (cyclo(A[X56]G[NMeL]G[NMeV][NMeY](Me)[X32])) | no |
| NC1CC(=O)c2sccc21 (centres undefined) | yes |
| CC(NC(=O)C(N)CC(=O)O)NC(=O)N(C)C(C)(C)C (centres undefined) | yes |
| CC(C)c1ccc(NC(=S)NC(=O)c2ccccc2)cc1 | yes |
| CCc1nc2ccc(C(F)(F)F)cc2[nH]c1=O | yes |
| CN1CCN(c2ccc(C(=O)Nc3cc(-c4cccc(NS(=O)(=O)c5ccccc5)c4)[nH]n3)cc2)CC1 | no |
| O=[N+]([O-])c1ccc2nc3ccccc3cc2c1 | no |
| O=C(OCCC12CC3CC(CC(C3)C1)C2)c1ccc(NCc2cc(O)ccc2O)cc1 | no |
| CC/C=C/c1cc2cc[nH]c2c2c1C(C)C[C@@H]2C (some centres undefined) | yes |

###

Test system: RPMI-8226 leukemia
Assay: NCI tumour cell line growth inhibition, 48 h
Label scheme for TGI: low range = under 8 µM, mid range = from 8 µM up to 30 µM, high range = 30 µM and over

| compound | assigned_label |
| --- | --- |
| CC(=O)Oc1ccc(/C=C/C(=O)O[C@H]2CCCC[C@@H]2OC(=O)/C=C/c2ccc(OC(C)=O)c(OC(C)=O)c2)cc1OC(C)=O | high range |
| c1ccc(C(CCN2CC3CCC(CC3)C2)c2ccccc2)cc1 | high range |
| N=c1c2c(=S)n(-c3ccccc3)c(=S)n(-c3ccccc3)c2nc(SCCN2CCOCC2)n1-c1ccccc1 | low range |
| COc1cc2c(cc1OCCCC(=O)Nc1cc(C(=O)NCCCN(C)C)n(C)n1)N=CC1CCCN1C2=O (stereo not given) | mid range |
| NC(=O)CC(N=C1C(=O)OC(C(O)CO)C1=NC(CC(N)=O)C(=O)O)C(=O)O (stereo not given) | high range |
| Cc1ccc(Sc2sc(-c3ccccc3)nc2[P+](c2ccccc2)(c2ccccc2)c2ccccc2)cc1 | low range |
| COc1cc(/C=C2\C(=O)Nc3cccc(Cl)c32)cc(OC)c1OC | high range |
| Cn1cnc([N+](=O)[O-])c1Sc1nnnn1-c1ccccc1 | high range |
| COc1ccccc1/C=C/C(=O)/C=C/c1ccccc1OC | mid range |
| NC(=O)c1nnsc1NC=O | high range |
| CS(=O)(=O)OCCCOS(C)(=O)=O | high range |
| Clc1c(C(Cl)(Cl)Cl)nsc1N1CCCCC1 | high range |
| CC(=O)O[C@H]1C[C@H]2C(=S)Nc3ccccc3C(=S)N2C1 | high range |
| COC(=O)[C@H](Cc1ccccc1)NP(=O)(O)OCC1C=CC(n2cc(C)c(=O)[nH]c2=O)O1 (stereo not given in full) | high range |
| S=C(Nc1ccccn1)Nc1ccccc1Cl | high range |
| Cc1cc2cn3c4cccnc4[nH]c(=O)c3c2cc1C | low range |
| COc1cc(OC)c(C(=O)/C=C/c2cccc(OC(C)=O)c2)cc1CC=C(C)C | high range |
| O=C1NN(c2ccccc2)C(=O)/C1=C/c1ccc(Br)o1 | mid range |

###

Listed molecules paired with reported TGI
Tested on: 786-0 renal
Assay: NCI tumour cell line growth inhibition, 48 h

| molecule | system | TGI |
| --- | --- | --- |
| COC(=O)[C@H](Cc1ccccc1)NP(=O)(O)OCC1C=CC(n2cc(C)c(=O)[nH]c2=O)O1 (stereo partly drawn) | 786-0 renal | > 100 µM |
| O=C1c2ccccc2-c2nc(/C=C/c3ccccc3)cc3c2c1nc1ccccc13 | 786-0 renal | > 100 µM |
| COc1cc2c(cc1OCCCCOc1ccc(-c3nc4ccccc4s3)cc1)N=C[C@@H]1CCCN1C2=O | 786-0 renal | 1.16 µM |

###

The compounds listed here are annotated with their GI50.
Tested on: SNB-75 CNS
Experiment: NCI tumour cell line growth inhibition, 48 h
experimental_endpoint: GI50

| compound | assay_result |
| --- | --- |
| O=C1CCS/C(=N\S(=O)(=O)c2ccc(N3N=C4c5ccccc5CC4C3c3cccs3)cc2)N1C(=O)c1ccccc1 (stereo not given) | > 100 µM |
| COc1cc(/C=C2\C(=O)Nc3cccc(Cl)c32)cc(OC)c1OC | 21.9 µM |
| Cn1c(=O)c(Oc2ccccc2)cc2cnc(NC3CCOCC3)nc21 | > 25 µM |
| C=C1C(=O)O[C@H]2[C@H]1CC/C(Cn1cc(-c3cc(C)c(C)cc3C)nn1)=C\CC[C@@]1(C)O[C@@H]21 | 0.521 µM |
| COc1ccccc1/C=C/C(=O)/C=C/c1ccccc1OC | 2.23 µM |
